Experimental System: 5'-nucleotidase (Homo sapiens)
Sequence (P21589 whole entry): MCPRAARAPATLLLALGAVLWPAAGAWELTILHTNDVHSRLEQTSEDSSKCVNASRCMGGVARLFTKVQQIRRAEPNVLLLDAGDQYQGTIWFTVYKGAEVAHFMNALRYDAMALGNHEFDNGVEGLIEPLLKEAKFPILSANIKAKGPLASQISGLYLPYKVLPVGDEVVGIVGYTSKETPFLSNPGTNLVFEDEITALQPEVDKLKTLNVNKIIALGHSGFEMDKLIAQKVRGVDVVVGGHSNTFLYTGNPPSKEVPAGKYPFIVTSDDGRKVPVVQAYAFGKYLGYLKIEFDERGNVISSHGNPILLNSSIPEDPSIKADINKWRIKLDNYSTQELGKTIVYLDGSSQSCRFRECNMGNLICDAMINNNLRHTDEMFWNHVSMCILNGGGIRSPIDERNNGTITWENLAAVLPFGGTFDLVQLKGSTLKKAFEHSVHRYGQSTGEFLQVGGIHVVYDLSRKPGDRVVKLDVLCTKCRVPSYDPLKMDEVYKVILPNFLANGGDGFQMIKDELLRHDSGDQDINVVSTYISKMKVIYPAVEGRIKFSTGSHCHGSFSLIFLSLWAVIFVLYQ
Assay Details: In Vitro Inhibitory Activity of Compound to Recombinant Human CD73 Enzyme
Listing of recorded pIC50 by entry.
Bear in mind: pIC50 is minus log10 of a mol/L concentration; give just that figure.

Some solved entries appear below for comparison.
INSERT INTO measurements (molecule, assay_value) VALUES
  ('O=c1[nH]cc(-c2cc([C@H]3C[C@@H]3CF)c(Cl)nn2)c(=O)[nH]1', 8.34),
  ('O=c1[nH]cc(-c2cc([C@H]3C[C@@H]3C(F)(F)F)c(Cl)nn2)c(=O)[nH]1', 7.94);

Query block: If you can, please state the reported pIC50 value of O=c1[nH]cc(-c2cc([C@@H]3C[C@H]3C(F)(F)F)c(Cl)nn2)c(=O)[nH]1 (relative stereo) .
Result block: 7.63
